# Test system: HIV-1 IIIB
# assayText: HOS HIV-1 infectivity assay, IIIB strain
# Assay type: cell-based
# assayContext: Human immunodeficiency virus 1; T-tropic (CXCR4 utilizing) IIIB strain, HOS cells, 96 h, luciferase; read-out: HOS (3B)
assayEndpoint: log10 IC50 (log10 of the value in nM)
All values: base-10 log of IC50 in nM.

Lab entry: HIV-1 IIIB assay, compound CN(C)CCCn1c(CN2CCC[C@H]3CCc4cccnc4[C@@H]32)nc2ccccc21 (stereo in doubt) [Example 10A] , log10 IC50 = 2.52

Item CN1CCCC(Cn2c(CN3CCC[C@H]4CCc5cccnc5[C@H]43)nc3ccccc32)C1 (mixture of isomers) ; assay system HIV-1 IIIB; log10 IC50 reported as 1.70

I looked up CN1CCN(c2cccc3nc(CN4CCC[C@H]5CCc6cccnc6[C@H]54)cn23)CC1 (racemic) [Example 15B] and its log10 IC50 for HIV-1 IIIB was 0.60

Measured log10 IC50 (HIV-1 IIIB), entry c1cnc2c(c1)CC[C@@H]1CCCN(Cc3nc4ccccc4n3Cc3ccncc3)[C@H]21 (racemic) : 2.89

Known value: HIV-1 IIIB log10 IC50 of the compound CN(C)CCCn1c(CN2CCC[C@@H]3CCc4cccnc4[C@@H]32)nc2ccccc21 [Example 11A] equals 2.72

Note to self: log10 IC50 of NCCCn1c(CN2CCC[C@H]3CCc4cccnc4[C@H]32)nc2ccccc21 (racemic) with HIV-1 IIIB was 1.86

Case CN(C)CCCn1c(CN2CCC[C@@H]3CCc4cccnc4[C@H]32)nc2ccccc21 (stereo in doubt) [Example 10B] , HIV-1 IIIB, log10 IC50 recorded as 2.15
